Could you please report measured aptazyme ON/OFF ratio for the items listed next?
B1: Pistol ribozyme (parent)
chain: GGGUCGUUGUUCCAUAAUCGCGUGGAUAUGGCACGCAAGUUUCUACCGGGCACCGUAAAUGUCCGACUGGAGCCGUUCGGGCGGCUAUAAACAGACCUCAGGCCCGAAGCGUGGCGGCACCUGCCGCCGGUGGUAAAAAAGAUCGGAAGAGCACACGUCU

Variants of: B1
Test: aptazyme ON/OFF ratio, guanine; higher = stronger switching; co-transcriptional cleavage with and without guanine

[in] Any idea what aptazyme ON/OFF ratio was measured for U7A U8G U11C C12G C13A ?
[out] 1.02

[in] Any idea what aptazyme ON/OFF ratio was measured for U7A U8G G9U U10G U11C C12U C13U ?
[out] 1.05

[in] Any idea what aptazyme ON/OFF ratio was measured for U8A G9U U10A C12A C13G ?
[out] 1.12

[in] Any idea what aptazyme ON/OFF ratio was measured for U7A G9A U11G C12G C13G ?
[out] 1.24

[in] Any idea what aptazyme ON/OFF ratio was measured for U7A G9A U10G U11G C12U C13A ?
[out] 1.17

[in] Any idea what aptazyme ON/OFF ratio was measured for U7G U8G G9U U10A U11C C12G C13A ?
[out] 1.08

[in] Any idea what aptazyme ON/OFF ratio was measured for U8A G9A C12A ?
[out] 1.34

[in] Any idea what aptazyme ON/OFF ratio was measured for U8A G9C U10C C12U ?
[out] 1.06

[in] Any idea what aptazyme ON/OFF ratio was measured for U7G U8C G9A U10A U11G C12U C13U ?
[out] 1.21

[in] Any idea what aptazyme ON/OFF ratio was measured for U7A U10C U11G C12G C13G ?
[out] 1.31

[in] Any idea what aptazyme ON/OFF ratio was measured for U7G U8G G9C C12A ?
[out] 1.22

[in] Any idea what aptazyme ON/OFF ratio was measured for U7G G9A U10A U11C C12A C13U ?
[out] 1.21

[in] Any idea what aptazyme ON/OFF ratio was measured for U7C U8A G9A U11G C13G ?
[out] 1.04

[in] Any idea what aptazyme ON/OFF ratio was measured for U7C G9U U11A C12A C13A ?
[out] 1.25

[in] Any idea what aptazyme ON/OFF ratio was measured for U7C U8C G9A U10G U11G C12U ?
[out] 1.25

[in] Any idea what aptazyme ON/OFF ratio was measured for U8C U10G U11G C12A C13U ?
[out] 1.22

[in] Any idea what aptazyme ON/OFF ratio was measured for U7C U11G C13U ?
[out] 1.03

[in] Any idea what aptazyme ON/OFF ratio was measured for U7A U8G G9U C12G C13A ?
[out] 1.22

[in] Any idea what aptazyme ON/OFF ratio was measured for U7G G9C U10A C12G ?
[out] 1.4

[in] Any idea what aptazyme ON/OFF ratio was measured for U7A U10A U11G ?
[out] 1.35

[in] Any idea what aptazyme ON/OFF ratio was measured for U7C U8A U10C C13A ?
[out] 1.09

[in] Any idea what aptazyme ON/OFF ratio was measured for U10G U11C C12A C13A ?
[out] 1.23

[in] Any idea what aptazyme ON/OFF ratio was measured for U7C G9C U11C C12U C13U ?
[out] 1.03

[in] Any idea what aptazyme ON/OFF ratio was measured for U8C G9U U10C U11C C12U ?
[out] 1.06

[in] Any idea what aptazyme ON/OFF ratio was measured for U7A U8G G9A U10C U11G C12A C13U ?
[out] 1.28

[in] Any idea what aptazyme ON/OFF ratio was measured for U7C U8C U10A C12U C13A ?
[out] 1.06

[in] Any idea what aptazyme ON/OFF ratio was measured for U7A U8C G9C U10A C12G ?
[out] 1.21

[in] Any idea what aptazyme ON/OFF ratio was measured for U7A U8G G9C U10C U11G C12U C13A ?
[out] 1.15

[in] Any idea what aptazyme ON/OFF ratio was measured for U7G U8G G9C U10A U11C C12A ?
[out] 1.06

[in] Any idea what aptazyme ON/OFF ratio was measured for U7C U8C G9C C12A ?
[out] 1.26

[in] Any idea what aptazyme ON/OFF ratio was measured for U7C U8G U10G C13U ?
[out] 1.35

[in] Any idea what aptazyme ON/OFF ratio was measured for U7G U8C U11C C12G C13G ?
[out] 1.11

[in] Any idea what aptazyme ON/OFF ratio was measured for U7C U10C U11G C13A ?
[out] 0.947

[in] Any idea what aptazyme ON/OFF ratio was measured for U10A U11C C12G C13G ?
[out] 1.29

[in] Any idea what aptazyme ON/OFF ratio was measured for U7C G9U U10A U11A C13G ?
[out] 1.04

[in] Any idea what aptazyme ON/OFF ratio was measured for U7C U8A G9U C12G ?
[out] 1.16

[in] Any idea what aptazyme ON/OFF ratio was measured for U7C U8G G9U U10A U11C C12U C13G ?
[out] 1.11

[in] Any idea what aptazyme ON/OFF ratio was measured for U8C G9U U10C U11A C12U C13G ?
[out] 1.09

[in] Any idea what aptazyme ON/OFF ratio was measured for G9C U10A U11C C12G ?
[out] 1.18

[in] Any idea what aptazyme ON/OFF ratio was measured for U8C G9A U10C U11A C12U C13G ?
[out] 1.33

[in] Any idea what aptazyme ON/OFF ratio was measured for U7C U8C G9A U10A U11G C12A C13A ?
[out] 1.09

[in] Any idea what aptazyme ON/OFF ratio was measured for U7C U8C G9A U10A U11G C13A ?
[out] 1.21

[in] Any idea what aptazyme ON/OFF ratio was measured for U7A U8C G9U U10C U11C C13A ?
[out] 1.01

[in] Any idea what aptazyme ON/OFF ratio was measured for U7C U10G U11A C12G C13G ?
[out] 1.15

[in] Any idea what aptazyme ON/OFF ratio was measured for U8G G9U U10G U11G C12A ?
[out] 1.06

[in] Any idea what aptazyme ON/OFF ratio was measured for U7C U8G G9U U10G U11C C12U C13G ?
[out] 1.08
